TEST TARGET: NET (Homo sapiens, UniProt P23975)
Sequence (P23975 whole entry): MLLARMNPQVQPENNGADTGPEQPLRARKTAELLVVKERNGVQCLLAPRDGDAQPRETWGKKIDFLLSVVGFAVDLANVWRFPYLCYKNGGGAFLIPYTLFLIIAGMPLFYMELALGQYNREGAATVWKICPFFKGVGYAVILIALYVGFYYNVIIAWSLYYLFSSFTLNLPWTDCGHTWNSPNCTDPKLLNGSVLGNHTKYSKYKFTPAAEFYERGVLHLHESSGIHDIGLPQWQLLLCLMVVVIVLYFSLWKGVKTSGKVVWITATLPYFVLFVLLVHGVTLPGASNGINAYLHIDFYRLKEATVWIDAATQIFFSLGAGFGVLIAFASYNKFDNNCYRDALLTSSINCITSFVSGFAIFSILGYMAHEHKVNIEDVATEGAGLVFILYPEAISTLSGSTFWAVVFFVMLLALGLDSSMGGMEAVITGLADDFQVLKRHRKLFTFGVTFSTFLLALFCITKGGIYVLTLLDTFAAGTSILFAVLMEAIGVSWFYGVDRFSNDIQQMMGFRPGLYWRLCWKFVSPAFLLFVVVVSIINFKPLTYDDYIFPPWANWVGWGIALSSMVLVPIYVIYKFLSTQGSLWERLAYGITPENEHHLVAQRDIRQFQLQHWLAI
PROTOCOL DETAILS: PDSP competitive binding assay
CONDITION DETAILS: Ki, NET, Run 3
MEASUREMENT NAME: Ki (nM)
Enter your answer as a number in nM; do not include the unit.

// query Ki value for entry OCCCN1CC[C@@H]2C[C@H]1c1cc(-c3ccc(C(F)(F)F)cc3)ccc12 [FEM-1689] 209

---

TEST TARGET: BZP Rat Brain
PROTOCOL DETAILS: PDSP competitive binding assay
CONDITION DETAILS: dose response curve; read-out: Ki, BZP Rat Brain
MEASUREMENT NAME: pKi
Keep in mind that pKi stands for -log10 of concentration in molar terms.

OCCCN1CC[C@@H]2C[C@H]1c1cc(-c3ccc(C(F)(F)F)cc3)ccc12 [FEM-1689]; 5.18

Here is another compound to look at.
Using the record for O=C1CN=C(c2ccccc2Cl)c2cc([N+](=O)[O-])ccc2N1 [clonazepam, reference compound] , report its pKi. 8.89
